# method summary: Stability in human serum assessed as half life measured for 5 hrs by RP-HPLC analysis
# Type: ADME, cell-free
measured parameter: half-life (min)
One number for each entry, in min.

Inquiry: Return reported half-life; argument: H-FLKLLKKLL-NH2
Reply text: 65.5

====

# Tested on: Staphylococcus aureus
# method summary: Antimicrobial activity against Staphylococcus aureus ATCC 25923 assessed as inhibition of visible bacterial growth incubated for 18 hrs by broth-dilution method
# Assay type: functional
Numbered stars: 1 amine (or outer) side, 2 acyl side, 3 side chain; on linkers, the order of the positions; unused ones are H or OH. Square brackets hold non-standard residues; d marks the D form. Peptide text beside a SMILES is read from it. * marks the point of attachment. X8 = NC(=O)CN(C[C@H](Cc1ccccc1)N*)S(=O)(=O)c1cc(C(F)(F)F)cc(C(F)(F)F)c1; X5 = NC(=O)CN(C[C@H](Cc1ccccc1)N*)S(=O)(=O)c1ccc(C(F)(F)F)cc1; X4 = N[C@@H](Cc1ccccc1)CN(CC(=O)[*:2])[*:1]; X7 = O=S(=O)(c1cc(C(F)(F)F)cc(C(F)(F)F)c1)*; X2 = CC(C)C[C@H](N)CN(CC(=O)[*:2])[*:1]; X1 = O=S(=O)(c1ccc(C(F)(F)F)cc1)*
measured parameter: MIC

CC(C)C[C@H](N)CN(CC(=O)N[C@@H](CCCCN)C(=O)N[C@@H](CC(C)C)C(=O)N[C@@H](CC(C)C)C(=O)N[C@@H](CCCCN)C(=O)N[C@@H](CCCCN)C(=O)N[C@@H](CC(C)C)C(=O)N[C@@H](CC(C)C)C(N)=O)S(=O)(=O)c1ccc(C(F)(F)F)cc1 (X1-[X2]KLLKKLL-NH2) :: 4 µg/mL
CC(C)C[C@H](NC(=O)[C@H](CC(C)C)NC(=O)[C@H](CCCCN)NC(=O)[C@H](CCCCN)NC(=O)[C@H](CC(C)C)NC(=O)[C@H](CC(C)C)NC(=O)[C@H](CCCCN)NC(=O)CN(C[C@@H](N)Cc1ccccc1)S(=O)(=O)c1ccc(C(F)(F)F)cc1)C(N)=O (X1-[X4]KLLKKLL-NH2) :: 8 µg/mL
CC(C)C[C@H](NC(=O)[C@H](CC(C)C)NC(=O)[C@H](CCCCN)NC(=O)[C@H](CC(C)C)NC(=O)[C@@H](N)Cc1ccccc1)C(=O)N[C@@H](CCCCN)C(=O)N[C@@H](CCCCN)C(=O)N[C@@H](Cc1ccccc1)CN(CC(N)=O)S(=O)(=O)c1cc(C(F)(F)F)cc(C(F)(F)F)c1 (H-FLKLLKK-X8) :: 4 µg/mL

# batch size: 4; output MIC per entry
1. CC(C)C[C@H](NC(=O)[C@H](CC(C)C)NC(=O)[C@H](CCCCN)NC(=O)[C@H](CCCCN)NC(=O)[C@H](CC(C)C)NC(=O)[C@H](C)NC(=O)[C@H](CCCCN)NC(=O)CN(C[C@@H](N)Cc1ccccc1)S(=O)(=O)c1ccc(C(F)(F)F)cc1)C(N)=O (X1-[X4]KALKKLL-NH2)
2. CC(C)C[C@H](NC(=O)[C@H](CC(C)C)NC(=O)[C@H](CCCCN)NC(=O)[C@H](CC(C)C)NC(=O)[C@@H](N)Cc1ccccc1)C(=O)N[C@@H](CCCCN)C(=O)N[C@@H](CCCCN)C(=O)N[C@@H](Cc1ccccc1)CN(CC(N)=O)S(=O)(=O)c1ccc(C(F)(F)F)cc1 (H-FLKLLKK-X5)
3. C[C@@H](O)[C@H]1C(=O)N2C(C(=O)O)=C(SCCNC=N)C[C@H]12 [IMIPENEM ANHYDROUS]
4. CC(C)C[C@H](NC(=O)[C@H](CC(C)C)NC(=O)[C@H](CCCCN)NC(=O)[C@H](CCCCN)NC(=O)[C@H](CC(C)C)NC(=O)[C@H](CC(C)C)NC(=O)[C@H](CCCCN)NC(=O)CN(C[C@@H](N)Cc1ccccc1)S(=O)(=O)c1cc(C(F)(F)F)cc(C(F)(F)F)c1)C(N)=O (X7-[X4]KLLKKLL-NH2)

Reply text:
1. 8 µg/mL
2. 8 µg/mL
3. 1 µg/mL
4. 4 µg/mL

====

# Test system: Staphylococcus aureus
# method summary: Antimicrobial activity against Staphylococcus aureus ATCC 25923 assessed as inhibition of visible bacterial growth incubated for 18 hrs by broth-dilution method
# Format: functional
Numbered stars: 1 amine (or outer) side, 2 acyl side, 3 side chain; on linkers, the order of the positions; unused ones are H or OH. Square brackets hold non-standard residues; d marks the D form. Peptide text beside a SMILES is read from it. * marks the point of attachment. X8 = NC(=O)CN(C[C@H](Cc1ccccc1)N*)S(=O)(=O)c1cc(C(F)(F)F)cc(C(F)(F)F)c1; X6 = CC(C)C[C@@H](CN(CC(N)=O)S(=O)(=O)c1cc(C(F)(F)F)cc(C(F)(F)F)c1)N*; X3 = CC(C)C[C@@H](CN(CC(N)=O)S(=O)(=O)c1ccc(C(F)(F)F)cc1)N*; X4 = N[C@@H](Cc1ccccc1)CN(CC(=O)[*:2])[*:1]; X7 = O=S(=O)(c1cc(C(F)(F)F)cc(C(F)(F)F)c1)*; X2 = CC(C)C[C@H](N)CN(CC(=O)[*:2])[*:1]
measured parameter: MIC (µg/mL)
Give bare numbers, in µg/mL.

CC(C)C[C@@H](CN(CC(N)=O)S(=O)(=O)c1ccc(C(F)(F)F)cc1)NC(=O)[C@H](CCCCN)NC(=O)[C@H](CCCCN)NC(=O)[C@H](CC(C)C)NC(=O)[C@H](CC(C)C)NC(=O)[C@H](CCCCN)NC(=O)[C@H](CC(C)C)NC(=O)[C@@H](N)Cc1ccccc1 (H-FLKLLKK-X3) :: 4

# batch size: 6; output MIC per entry
1. CC(C)(O/N=C(\C(=O)N[C@@H]1C(=O)N2C(C(=O)[O-])=C(C[n+]3ccccc3)CS[C@H]12)c1csc(N)n1)C(=O)O
2. CC(C)C[C@@H](CN(CC(N)=O)S(=O)(=O)c1cc(C(F)(F)F)cc(C(F)(F)F)c1)NC(=O)[C@H](CCCCN)NC(=O)[C@H](CCCCN)NC(=O)[C@H](CC(C)C)NC(=O)[C@H](CC(C)C)NC(=O)[C@H](CCCCN)NC(=O)[C@H](CC(C)C)NC(=O)[C@@H](N)Cc1ccccc1 (H-FLKLLKK-X6)
3. CC(C)C[C@H](NC(=O)[C@H](C)NC(=O)[C@H](CCCCN)NC(=O)[C@H](CC(C)C)NC(=O)[C@@H](N)Cc1ccccc1)C(=O)N[C@@H](CCCCN)C(=O)N[C@@H](CCCCN)C(=O)N[C@@H](Cc1ccccc1)CN(CC(N)=O)S(=O)(=O)c1cc(C(F)(F)F)cc(C(F)(F)F)c1 (H-FLKALKK-X8)
4. CC(C)C[C@H](NC(=O)[C@H](CC(C)C)NC(=O)[C@H](CCCCN)NC(=O)[C@H](CCCCN)NC(=O)[C@H](CC(C)C)NC(=O)[C@H](C)NC(=O)[C@H](CCCCN)NC(=O)CN(C[C@@H](N)Cc1ccccc1)S(=O)(=O)c1cc(C(F)(F)F)cc(C(F)(F)F)c1)C(N)=O (X7-[X4]KALKKLL-NH2)
5. CC(C)C[C@H](N)CN(CC(=O)N[C@@H](CCCCN)C(=O)N[C@@H](CC(C)C)C(=O)N[C@@H](CC(C)C)C(=O)N[C@@H](CCCCN)C(=O)N[C@@H](CCCCN)C(=O)N[C@@H](CC(C)C)C(=O)N[C@@H](CC(C)C)C(N)=O)S(=O)(=O)c1cc(C(F)(F)F)cc(C(F)(F)F)c1 (X7-[X2]KLLKKLL-NH2)
6. CC1(C)S[C@@H]2[C@H](NC(=O)[C@H](N)c3ccc(O)cc3)C(=O)N2[C@H]1C(=O)O

Reply text:
1. 4
2. 8
3. 16
4. 8
5. 8
6. 1

====

Please provide measured MHC for the entries that follow.
# Tested on: Erythrocyte
# method summary: Hemolytic activity against mouse Red blood cell incubated for 1 hr
# Type: toxicity, cell-based
Numbered stars: 1 amine (or outer) side, 2 acyl side, 3 side chain; on linkers, the order of the positions; unused ones are H or OH. Square brackets hold non-standard residues; d marks the D form. Peptide text beside a SMILES is read from it. * marks the point of attachment. X8 = NC(=O)CN(C[C@H](Cc1ccccc1)N*)S(=O)(=O)c1cc(C(F)(F)F)cc(C(F)(F)F)c1; X4 = N[C@@H](Cc1ccccc1)CN(CC(=O)[*:2])[*:1]; X1 = O=S(=O)(c1ccc(C(F)(F)F)cc1)*
Give bare numbers, in µg/mL.

Below are worked cases with known answers.
CC(C)C[C@H](NC(=O)[C@H](C)NC(=O)[C@H](CCCCN)NC(=O)[C@H](CC(C)C)NC(=O)[C@@H](N)Cc1ccccc1)C(=O)N[C@@H](CCCCN)C(=O)N[C@@H](CCCCN)C(=O)N[C@@H](Cc1ccccc1)CN(CC(N)=O)S(=O)(=O)c1cc(C(F)(F)F)cc(C(F)(F)F)c1 (H-FLKALKK-X8) :: 256
CC(C)C[C@H](NC(=O)[C@H](CC(C)C)NC(=O)[C@H](CCCCN)NC(=O)[C@H](CCCCN)NC(=O)[C@H](CC(C)C)NC(=O)[C@H](CC(C)C)NC(=O)[C@H](CCCCN)NC(=O)CN(C[C@@H](N)Cc1ccccc1)S(=O)(=O)c1ccc(C(F)(F)F)cc1)C(N)=O (X1-[X4]KLLKKLL-NH2) :: 32

Inquiry: What measured MHC is associated with CC(C)C[C@H](NC(=O)[C@H](CC(C)C)NC(=O)[C@H](CCCCN)NC(=O)[C@H](CC(C)C)NC(=O)[C@@H](N)Cc1ccccc1)C(=O)N[C@@H](CCCCN)C(=O)N[C@@H](CCCCN)C(=O)N[C@@H](Cc1ccccc1)CN(CC(N)=O)S(=O)(=O)c1cc(C(F)(F)F)cc(C(F)(F)F)c1 (H-FLKLLKK-X8) on Erythrocyte?
Reply text: 64
